Catalogue of molecules with associated 2-AG accumulation, % of vehicle control at 1 µM
Target: MGL (Rattus norvegicus)
Construct: one g rat brain was homogenized using a Polytron homogenizer; from tissue; host or cells: rat brain homogenate
Sequence (Q8R431 whole entry): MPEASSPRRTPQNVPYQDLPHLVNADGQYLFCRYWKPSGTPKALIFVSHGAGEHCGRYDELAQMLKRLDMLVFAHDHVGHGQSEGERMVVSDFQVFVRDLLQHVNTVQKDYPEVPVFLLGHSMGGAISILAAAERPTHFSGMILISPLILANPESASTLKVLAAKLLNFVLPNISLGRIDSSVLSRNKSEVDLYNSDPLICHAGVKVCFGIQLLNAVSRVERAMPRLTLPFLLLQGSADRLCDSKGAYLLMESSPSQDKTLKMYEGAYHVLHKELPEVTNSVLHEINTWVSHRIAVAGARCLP
Test: 2-AG accumulation assay in rat brain homogenate
Assay type: biochemical
Conditions: rat brain homogenate; compound 1 μM; 2-AG accumulation as percent of vehicle; read-out: Rat Brain 2AG % VehCntrl (%) @ 1 μM
Give the number; % is assumed, so skip it.

Reference set (6 entries):
{"SMILES_STRING": "Cn1cc(Cc2ccc(F)cc2)c2ccc(C(=O)N3CC(N4CCN(C(=O)c5cscn5)CC4)C3)cc21", "READOUT_UNIT": "%", "RECORDED_VALUE": 785}
{"SMILES_STRING": "Cc1c(C(=O)N2CC(N3CCN(C(=O)c4ccccc4)CC3)C2)sc2ccc(-c3ccccc3)cc12", "READOUT_UNIT": "%", "RECORDED_VALUE": 210}
{"SMILES_STRING": "COc1c(C(=O)N2CC(N3CCN(C(=O)c4cscn4)CC3)C2)sc2cc(C(F)(F)F)ccc12", "READOUT_UNIT": "%", "RECORDED_VALUE": 547}
{"SMILES_STRING": "O=C(c1cscn1)N1CCN(C2CN(C(=O)c3ccc(-c4ccc(Cl)c(C(F)(F)F)c4)cc3Cl)C2)CC1", "READOUT_UNIT": "%", "RECORDED_VALUE": 395}
{"SMILES_STRING": "O=C(c1ccc(-c2cccc(C(F)(F)F)c2)cc1)N1CCN(C2CN(C(=O)c3ccc[nH]3)C2)CC1", "READOUT_UNIT": "%", "RECORDED_VALUE": 176}
{"SMILES_STRING": "O=C(c1cc(-c2ccccc2)cc(C(F)(F)F)c1)N1CC(N2CCN(C(=O)c3nccs3)CC2)C1", "READOUT_UNIT": "%", "RECORDED_VALUE": 212}

API: the following record is the query input.
Request: Value lookup for 2-AG accumulation, % of vehicle control at 1 µM; key = O=C(c1ccc(-c2ccc(C(F)(F)F)s2)cc1)N1CC(N2CCN(C(=O)c3cscn3)CC2)C1
Result: 552

Where do these numbers come from? They come from patent US8362000B2.
